measuredOn: T1, human DLL4 (human, UniProt Q9NR61 27-524, limits assumed)
T1 construct: Antigen of the monoclonal phage ELISA; also called hDLL4
experiment: monoclonal phage ELISA on hDLL4, with HSA as control antigen, OD450
endpoint: binding result

binder	binding result
E4 WT (VNAR, also called pre-humanised parental clone E4 WT; Wt DLL4 VNAR) VNAR: ASVNQTPRTATKETGESLTINCVLTDTKYLYSTSWFRKNPGTTDWERMSIGGRYVESVNKGAKSFSLRIKDLTVADSATYICRAWTSFEEQVKDVYGAGTVLTVN	binds
E4V2Gg11 (VNAR, Clone from the E4-V2 humanised library) VNAR: ASVNQSPSSLSASVGDRVTITCVLTGTRYWFSTSWFRKNPGTTDEDSISNGGRYVESVNNGSMSFTLTISSLQPEDFATYYCRAWTSFEEQVKDVYGGGTKVEIK	binds
E4V2Ee6 (VNAR, Clone from the E4-V2 humanised library) VNAR: ASVNQSPSSLSASVGDRVTITCVLTDTRYLYATSWFRKNPGTTNKESISNGGRYVESVNKRSMSFTLTISSLQPEDFATYYCRAWTSFEEQVKDVYGGGTKVEIK	binds
E4V2B9 (VNAR, Clone from the E4-V2 humanised library) VNAR: ASVNQSPSSLSASVGDRVTITCVLTGTGYWYSTSWFRKNPGTSNEDRIIIGGRYVESVNKGTKSFTLTISSLQPEDFATYYCRAWTSFEEQVKDVYGGGTKVEIK	binds
E4V2Cc8 (VNAR, Clone from the E4-V2 humanised library) VNAR: ASVNQSPSSLSASVGDRVTITCVLTSAGYLYATSWFRKNPGTSDKESMIIGRRYVESVNNRSMSFTLTISSLQPEDFATYYCRAWTSFEEQVKDVYGGGTKVEIK	binds

Could you now consider this next binder?
Request: Find the recorded binding result belonging to E4V2Cc9 (VNAR, Clone from the E4-V2 humanised library) VNAR: ASVNQSPSSLSASVGDRVTITCVLTGTEYLYSTSWFRKNPGTPNEDRMINGGRYVESVNKGTMSFTLTISSLQPEDFATYYCRAWTSFEEQVKDVYGGGTKVEIK and report it.
Response: binds
